- TGT: human 5HT4 receptor (Homo sapiens)
- Construct: expressed in transfected cells
- Sequence (Q13639 whole entry): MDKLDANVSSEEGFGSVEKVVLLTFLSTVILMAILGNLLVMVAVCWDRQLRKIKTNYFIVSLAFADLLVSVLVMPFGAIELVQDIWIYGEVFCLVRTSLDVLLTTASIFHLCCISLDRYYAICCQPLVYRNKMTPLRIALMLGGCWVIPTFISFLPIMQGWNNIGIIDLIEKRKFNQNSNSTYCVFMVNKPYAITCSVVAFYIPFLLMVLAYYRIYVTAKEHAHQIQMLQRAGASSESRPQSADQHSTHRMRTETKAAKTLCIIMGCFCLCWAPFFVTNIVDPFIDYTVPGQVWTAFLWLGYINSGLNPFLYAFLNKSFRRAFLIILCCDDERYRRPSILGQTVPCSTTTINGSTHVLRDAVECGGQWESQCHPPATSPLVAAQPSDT
- MEASUREMENT PROTOCOL: Radioligand binding, 5-HT4 receptor
- CONDITION: Table 7; read-out: h5HT4 Ki
Provide the reported log10 of Ki of each item.
Use the decimal logarithm of Ki (nM).

| COMPOUND | log10 of Ki |
| --- | --- |
| Cc1ccc(Nc2cc(N3CCCCC3)nc(N(C)CCc3c[nH]c4ccccc34)n2)cc1 [Example 11] | 3.12 |
| O=C1C(=Nc2cccc(Cl)c2)c2ccccc2N1c1ccccc1 [Example 94] | 3.61 |
| O=C1C(=Nc2ccc(Cl)cc2)c2ccccc2N1c1ccccc1 [Example 97] | 3.41 |
| O=C1C(=Nc2ccc(Br)cc2)c2ccccc2N1c1ccccc1 [Example 98] | 3.08 |

Let us examine a further case.
Recorded log10 of Ki for Cc1ccc(Nc2cc(N3CCCCC3)nc(N3CCN(c4ncccc4C(F)(F)F)CC3)n2)cc1 [Example 34] on human 5HT4 receptor (Homo sapiens) was 4.32

Cited source: patent EP2140864A2
